Target: T1, biotinylated Avi-UPF2-MIF4GIII (UniProt Q9HAU5 761-1054, biotin on the Avi tag (BirA))
T1 construct: UPF2, third middle-domain of eukaryotic initiation factor 4G (MIF4GIII), residues 761-1054; Avi tag added by site-directed mutagenesis to UPF2-MIF4GIII; also called immobilized UPF2-MIF4GIII; source: E. coli BL21 Rosetta2(DE3), purified (Ni-NTA, TEV, reverse IMAC, ion exchange); biotinylated with BirA, SEC
T1 sequence (looked up): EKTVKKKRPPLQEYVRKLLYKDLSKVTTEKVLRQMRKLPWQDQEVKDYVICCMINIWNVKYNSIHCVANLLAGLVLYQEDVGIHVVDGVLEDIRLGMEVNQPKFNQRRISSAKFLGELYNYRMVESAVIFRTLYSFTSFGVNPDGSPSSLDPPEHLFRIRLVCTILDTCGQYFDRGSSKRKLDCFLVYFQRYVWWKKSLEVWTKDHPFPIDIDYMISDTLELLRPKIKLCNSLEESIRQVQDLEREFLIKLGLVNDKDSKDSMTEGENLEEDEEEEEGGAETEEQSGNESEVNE
Experiment: SPR; 350 RU biotinylated Avi-UPF2-MIF4GIII immobilised on an SA chip (Biacore T200); UPF3B and UPF3A constructs injected; 15°C; 300 mM NaCl, 25 mM HEPES pH 7.4, 0.25 mM TCEP, 0.05% Tween-20; global fit, 1:1 binding model
Conditions: both partners purified
ASSAY_METRIC: Kd

UPF3B-41–189 Y160D (domain or fragment, human, UniProt Q9BZI7 41-189, looked up, UPF3B, human, residues 41-189 with the disease-causing (XLID) mutation Y160D; Y160D is a patient mutation and is also used as a phosphomimetic; also called UPF3B-Y160D; phosphomimetic/disease mutation; source: E. coli BL21 Rosetta2(DE3), purified (Ni-NTA, TEV, reverse IMAC, ion exchange)) DRNKEKKEALSKVVIRRLPPTLTKEQLQEHLQPMPEHDYFEFFSNDTSLYPHMYARAYINFKNQEDIILFRDRFDGYVFLDNKGQEYPAIVEFAPFQKAAKKKTKKRDTKVGTIDDDPEDRKFLESYATDNEKMTSTPETLLEEIEAKN    140 nM
UPF3B-41–189 Y167D (domain or fragment, human, UniProt Q9BZI7 41-189, looked up, UPF3B, human, residues 41-189 with Y167D; also called Y167D (phosphomimetic); source: E. coli BL21 Rosetta2(DE3), purified (Ni-NTA, TEV, reverse IMAC, ion exchange)) DRNKEKKEALSKVVIRRLPPTLTKEQLQEHLQPMPEHDYFEFFSNDTSLYPHMYARAYINFKNQEDIILFRDRFDGYVFLDNKGQEYPAIVEFAPFQKAAKKKTKKRDTKVGTIDDDPEYRKFLESDATDNEKMTSTPETLLEEIEAKN    7.4 nM
UPF3B-41–189 (domain or fragment, human, UniProt Q9BZI7 41-189, looked up, UPF3B, human, RRM-L and N-terminal part of the middle-domain (NOPS-L), residues 41-189; also called UPF3B-1–189 (as printed once); source: E. coli BL21 Rosetta2(DE3), purified (Ni-NTA, TEV, reverse IMAC, ion exchange)) DRNKEKKEALSKVVIRRLPPTLTKEQLQEHLQPMPEHDYFEFFSNDTSLYPHMYARAYINFKNQEDIILFRDRFDGYVFLDNKGQEYPAIVEFAPFQKAAKKKTKKRDTKVGTIDDDPEYRKFLESYATDNEKMTSTPETLLEEIEAKN    3.6 nM
UPF3A-58–206-RRM* A101S-A102N-L104T (domain or fragment, human, UniProt Q9H1J1 58-206, looked up, also called RRM* construct; source: E. coli BL21 Rosetta2(DE3), purified (Ni-NTA, TEV, reverse IMAC, ion exchange)) KPREEKRTALSKVVIRRLPPGLTKEQLEEQLRPLPAHDYFEFFSNDTSLYPHLYSRAYINFRNPDDILLFRDRFDGYIFLDSKGLEYPAVVEFAPFQKIAKKKLRKKDAKTGSIEDDPEYKKFLETYCVEEEKTSANPETLLGEMEAKT    0.77 nM
